Can you tell me Substrate specificity (relative activity %) for the items I'm about to list?
Test system: choline oxidase derived from B. album KY 4319
Method Description: Substrate specificity of choline oxidase
Format: biochemical, Brevibacterium album
Condition Set: enzyme 1.5 U/ml; activity on choline chloride defined as 100
Counter-ions that a name gives are not always drawn.
Answer with a number only, understood to be in %.

Reported Substrate specificity (relative activity %) for CNCCO [2-methylaminoethanol, 2-methyl-aminoethanol] was 1.0

Note to self: Substrate specificity (relative activity %) recorded for NCCO [ethanolamine hydrochloride] was 0

// Substrate specificity (relative activity %) value for C[N+](C)(C)CC(=O)O [betaine] : 0

Lab note: CNCC(=O)O [sarcosine] gave Substrate specificity (relative activity %) of 0

molecule CN(C)CCO [2-dimethylaminoethanol, 2-dimethyl-aminoethanol] , Substrate specificity (relative activity %) observed: 7.3

Substrate specificity (relative activity %) reading for CC(=O)OCC[N+](C)(C)C.[Cl-] [acetylcholine chloride] : 0

Form field Substrate specificity (relative activity %), entry NCC(=O)O [glycine] : 0

The molecule C[N+](C)(C)CCO.[Cl-] [choline chloride] showed Substrate specificity (relative activity %) equal to 100
